- Tested on: LOX IMVI melanoma
- EXPERIMENTAL DETAILS: NCI tumour cell line growth inhibition, 48 h
Consider the following compounds; for each one, report its TGI.

Below, each entry is followed by its recorded TGI result.
Record summary for COc1cc([N+](=O)[O-])ccc1N1C(=O)C2c3[nH]c4ccccc4c3C3CCC(C(C)(C)C)CC3C2C1=O (centres undefined) : reported TGI = > 100 µM

// TGI value for CC1C(=O)C(C)C(c2ccco2)N(N=O)C1c1ccco1 (centres undefined) : > 100 µM

Would you mind giving TGI for every compound in the list below?
1. COc1ccc(/C=C2/CN(CCC#N)C/C(=C\c3ccc(OC)cc3)C2=O)cc1
2. O=C(/C=C/c1ccccc1)OCC1=C[C@@H](O)[C@@H]2C=CO[C@@H](OC3OC(CO)C(O)C(O)C3O)[C@H]12 (some centres undefined)
3. O=C(NC1C(=O)NNC1c1ccccc1Cl)c1ccccc1 (centres undefined)
4. COc1ccc2nc3c([N+](=O)[O-])ccc(NCCN(C)C)c3c(NCCN(C)C)c2c1
5. N=C1/C(=C2\Nc3ccccc3S2)CC(=O)N1c1ccc(SC(F)F)cc1
6. COC(=O)/C(=N/NC(C)(C)C)C(C(=O)OC)C(=O)C(=O)Nc1nc2ccc([N+](=O)[O-])cc2s1 (centres undefined)

## Result
4.03 µM
> 100 µM
> 100 µM
3.11 µM
> 100 µM
> 100 µM

What the record says about `Oc1ccc(-c2nc3cc(F)ccc3s2)cc1` : TGI is 33.3 µM

* * *

- Tested on: SK-MEL-2 melanoma
- EXPERIMENTAL DETAILS: NCI tumour cell line growth inhibition, 48 h
Give measured GI50 for each item. Keep answers brief.

Recorded GI50, per entry:
Entry COc1ccc2c(c1)N(CCO)C1=C(C(=O)OC1)C2c1ccc(OC)c(OC)c1 (stereo not drawn) , GI50 reported as 2.66 µM

The value of GI50 measured for the molecule `COc1ccc2c(c1)C(=O)c1c-2c(N2CCN(C(=O)CCNCCNCCO)CC2)nc2ccccc12` turned out to be 24.1 µM

Form field GI50, entry `CC[C@@]1(O)C(=O)NCc2c1cc1n(c2=O)Cc2cc3c(NC(C)=O)cccc3nc2-1` : > 100 µM

What the record says about `CC(C)[C@H](C(=O)O[C@@H]1/C=C/C(=O)O[C@@H](C)CCC/C=C/[C@@H]2C[C@H](O)C[C@H]21)N(C)C` : GI50 is 17 µM

Form: molecule = Cn1cc(C2=C(c3c(S(C)=O)n(C)c4ccccc34)C(=O)NC2=O)c2ccccc21 (stereo not drawn) ; GI50 = 7.88 µM

// field: GI50; key: `Cc1[nH]n(-c2cccc(Cl)c2)c(=O)c1/C=C1\C=c2ccccc2=CC1=O` ; value = 21.8 µM

Please state GI50 for every molecule in the list that follows.
1. CCN1C(=O)N(CC)C2C1NN=c1s/c(=C\c3ccc(OC)cc3)c(=O)n12 (stereo not drawn)
2. O=C1N=C(Nc2nc(-c3csc(NC4=NC(=O)/C(=C\c5ccc(Cl)cc5)S4)n3)cs2)S/C1=C/c1ccc(Cl)cc1

## Result
1: 1.66 µM; 2: > 50 µM

* * *

- Tested on: NCI-H23 lung
- EXPERIMENTAL DETAILS: NCI tumour cell line growth inhibition, 48 h
Give measured GI50 for each item. Keep answers brief.

For record `O=C1N=C(Nc2nc(-c3csc(NC4=NC(=O)/C(=C\c5ccc(Cl)cc5)S4)n3)cs2)S/C1=C/c1ccc(Cl)cc1` the listed GI50 is 13.5 µM

Hi there! I need GI50 for each item below, if you can.
1. COc1cc(NC(C)CCCN2C(=O)c3ccccc3C2=O)c2ncccc2c1OC (stereo not given)
2. CCN(CCO)CCCOc1ccc2c(Nc3cc(CC(=O)Nc4cccc(F)c4)[nH]n3)ncnc2c1
3. COC1=CC2CCN3Cc4cc5c(cc4C(C1O)C23)OCC5 (stereo not given)
4. N=C1/C(=C2\Nc3ccccc3S2)CC(=O)N1c1ccc(SC(F)F)cc1

## Result
26.3 µM
17.4 µM
2.17 µM
18.7 µM
